# Assay Target: T1, Ara h 2 (peanut, UniProt Q6PSU2 22-172)
# T1 construct: also called full length Ara h 2
# T1 sequence (looked up): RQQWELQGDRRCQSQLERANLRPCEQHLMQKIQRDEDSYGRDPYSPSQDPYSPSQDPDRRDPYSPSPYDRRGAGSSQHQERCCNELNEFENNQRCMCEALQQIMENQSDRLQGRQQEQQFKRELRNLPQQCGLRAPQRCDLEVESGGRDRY
# Protocol: competition ELISA on coated Ara h 2; competitor: Patient A serum IgE
# % inhibition of IgE binding values compiled below
Reply with just the number (in %).

Worked cases, answers included:
Binder: h4B2 (antibody, V domains shown, Recombinant human IgG; also called hMAb 4B2) VH: QVQLQEAGPRLVKPSQTLSVTCTVSGASITIGGYYWSWIRQHPGKGLEWMGYIYSNGRTYYNPSLKSRIAMSIDTSKNQFSLKLTSVTAADTAIYFCAREAWETPLWGQGTLITVSS VL: DIQMTQSPSSLSASVGDRVTITCQANQDIVNSLNWFQHKPGTAPKVLIYDASKLETGVPSRFSGSGSGTHFTFTISGLQPEDFATYFCQQYENLPHTFGQGTKLEIR
% inhibition of IgE binding, %: 39.7
//
Binder: h12G10 (antibody, human IgG1, V domains shown, Recombinant human IgG; also called hMAb 12G10) VH: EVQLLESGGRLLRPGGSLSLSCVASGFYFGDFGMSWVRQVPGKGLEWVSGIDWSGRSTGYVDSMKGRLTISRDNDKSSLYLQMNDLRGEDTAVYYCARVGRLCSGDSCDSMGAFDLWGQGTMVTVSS VL: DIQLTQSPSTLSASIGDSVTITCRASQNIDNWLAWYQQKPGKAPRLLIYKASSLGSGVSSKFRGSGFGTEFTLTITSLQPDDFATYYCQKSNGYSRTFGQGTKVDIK
% inhibition of IgE binding, %: 13.8

// moving on: another record for % inhibition of IgE binding
Q: Would you mind telling me what % inhibition of IgE binding value was observed for h37D5 (antibody, V domains shown, Recombinant human IgG; also called hMAb 37D5) VH: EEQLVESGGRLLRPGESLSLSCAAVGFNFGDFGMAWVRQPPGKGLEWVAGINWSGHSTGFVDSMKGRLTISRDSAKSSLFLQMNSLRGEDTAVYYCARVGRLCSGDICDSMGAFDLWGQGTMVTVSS VL: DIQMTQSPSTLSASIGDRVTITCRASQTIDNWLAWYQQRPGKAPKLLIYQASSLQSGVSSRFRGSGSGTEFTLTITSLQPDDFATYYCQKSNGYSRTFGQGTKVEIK ?
Ans: 27.8
